TARGET DESC: WRN helicase (Werner syndrome protein) (Homo sapiens)
Sequence (Q14191 2-1432): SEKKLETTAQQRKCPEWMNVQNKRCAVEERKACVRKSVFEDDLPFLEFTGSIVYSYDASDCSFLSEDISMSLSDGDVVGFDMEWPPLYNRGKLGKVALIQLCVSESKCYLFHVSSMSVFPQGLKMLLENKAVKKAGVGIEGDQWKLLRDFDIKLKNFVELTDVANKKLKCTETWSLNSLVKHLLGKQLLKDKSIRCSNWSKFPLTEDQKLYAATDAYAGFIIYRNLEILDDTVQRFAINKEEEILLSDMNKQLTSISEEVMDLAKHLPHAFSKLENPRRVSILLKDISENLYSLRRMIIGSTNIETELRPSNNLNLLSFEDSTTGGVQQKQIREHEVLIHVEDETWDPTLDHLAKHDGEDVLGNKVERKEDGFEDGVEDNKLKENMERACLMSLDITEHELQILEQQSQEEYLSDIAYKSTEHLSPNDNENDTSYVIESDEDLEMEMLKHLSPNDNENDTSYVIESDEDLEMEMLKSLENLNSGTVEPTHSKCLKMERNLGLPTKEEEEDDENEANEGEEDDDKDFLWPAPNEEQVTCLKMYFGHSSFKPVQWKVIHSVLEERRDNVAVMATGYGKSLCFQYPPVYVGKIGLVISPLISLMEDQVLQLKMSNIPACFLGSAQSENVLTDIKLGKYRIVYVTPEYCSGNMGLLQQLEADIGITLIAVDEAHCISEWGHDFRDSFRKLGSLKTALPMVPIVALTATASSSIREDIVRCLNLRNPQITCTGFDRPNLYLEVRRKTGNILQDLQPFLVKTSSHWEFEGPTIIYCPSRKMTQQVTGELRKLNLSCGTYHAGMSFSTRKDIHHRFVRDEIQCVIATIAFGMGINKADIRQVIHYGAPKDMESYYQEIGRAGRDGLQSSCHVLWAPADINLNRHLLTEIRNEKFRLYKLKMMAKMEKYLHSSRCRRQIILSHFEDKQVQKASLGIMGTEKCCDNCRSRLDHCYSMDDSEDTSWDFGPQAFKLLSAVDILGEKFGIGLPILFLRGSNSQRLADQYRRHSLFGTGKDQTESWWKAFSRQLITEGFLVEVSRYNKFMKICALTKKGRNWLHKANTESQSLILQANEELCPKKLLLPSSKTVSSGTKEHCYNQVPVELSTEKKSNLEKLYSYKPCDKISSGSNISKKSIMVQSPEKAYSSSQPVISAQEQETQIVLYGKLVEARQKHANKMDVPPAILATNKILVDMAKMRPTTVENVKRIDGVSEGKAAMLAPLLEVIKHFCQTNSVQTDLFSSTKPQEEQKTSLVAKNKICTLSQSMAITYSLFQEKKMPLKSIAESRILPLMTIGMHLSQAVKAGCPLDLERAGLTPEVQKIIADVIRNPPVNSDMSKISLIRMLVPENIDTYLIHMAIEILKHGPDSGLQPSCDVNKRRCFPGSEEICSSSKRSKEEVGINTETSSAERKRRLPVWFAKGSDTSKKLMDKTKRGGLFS
pIC50: −log10 of the molar value.

CHEMICAL STRUCTURE | pIC50
CC(C)(CN1C(=O)C(Cl)=C(Cl)C1=O)CN1C(=O)C(Cl)=C(Cl)C1=O | 6.64
